# experiment_summary: In-vitro metabolism of LDAA compounds using liver microsomes
# Assay type: in vitro ADME, human
# settings: both sexes, human, pooled human liver microsomes, pH 7.4, 1.0E−07M; 0.1 mg/mL microsomal protein; read-out: Half-Life (minute) 1st
# Protocol: The stability of test compounds in pooled human liver microsomes was determined on 96-well plates, wherein the test compounds were quantified at five time points by HPLC-MS/MS analysis. […] In each assay the four reference compounds propranolol, imipramine, verapamil and terfenadine were tested, wherein the propranolol and the imipramine are known to be relatively stable, while the verapamil and the terfenadine are known to be readily metabolized in human liver microsomes. […]
Counter-ions that a name gives are not always drawn. Non-standard residues stand in square brackets, D forms with d. Residues, ends and D or L forms follow the SMILES beside them. Dopa = N[C@@H](Cc1ccc(O)c(O)c1)C(=O)O
Please note: half-life at 0.1 μM exactly at 100 min is not met. Only values below 100 min get met.

Example results:
1) N[C@@H](Cc1ccc(O)c(O)c1)C(=O)N[C@@H](Cc1ccc(O)cc1)C(=O)O [LD-Tyr TFA salt, Levodopa Tyrosine TFA Salt] (H-[Dopa]-Tyr-OH) ... not met
2) N=C(N)NCCC[C@H](NC(=O)[C@@H](N)Cc1ccc(O)c(O)c1)C(=O)O [LD-Arg TFA salt, Levodopa Arginine TFA Salt] ... met
3) NCCCC[C@H](NC(=O)[C@@H](N)Cc1ccc(O)c(O)c1)C(=O)O [LD-Lys TFA salt, Levodopa Lysine TFA Salt] (H-[Dopa]-Lys-OH) ... met
4) N[C@@H](Cc1ccc(O)c(O)c1)C(=O)O [LD (control), L-3,4-dihydroxyphenylalanine, reference compound] ... not met

Here's the next entry for you.
[Q] Is half-life at 0.1 μM of N[C@@H](CSC[C@@H](NC(=O)[C@@H](N)Cc1ccc(O)c(O)c1)C(=O)O)C(=O)O (single isomer, unassigned; peak 1) [LD-LA1 TFA salt, Levodopa Lanthionine Peak 1 TFA Salt] strictly below 100 min?
[A] not met

Taken from patent US20220362386A1.
